# Test system: corn
# method: Test B pre/postemergence corn
# Format: in vivo, Zea mays
# cond: Preemergence, Rate 125 g/ha; scale 0 to 10 (0 no effect, 10 complete control)
recorded-metric: Plant response rating, Corn

* COc1cccc(C)c1-n1c(=O)on(C(=O)N(c2ccc(F)cc2F)C(C)C)c1=O | 0
* CCc1cccc(C)c1-n1c(=O)on(C(=O)N(c2ccc(F)cc2)C(C)C)c1=O | 0
* Cc1ccccc1Cn1c(=O)on(C(=O)N(c2ccc(F)cc2F)C(C)C)c1=O | 0
* CCCn1c(=O)on(C(=O)N(c2ccc(F)cc2)C(C)C)c1=O | 6
* Cc1cccc(C)c1-n1c(=O)on(C(=O)N(c2ccc(F)cc2)C(C)C)c1=O | 0
